NADPH fluorescence slope listing for selected compounds.
Measurement Target: Voltage-gated potassium channel subunit beta-2 (Rattus norvegicus) (UniProt P62483)
Sequence (P62483 whole entry, looked up): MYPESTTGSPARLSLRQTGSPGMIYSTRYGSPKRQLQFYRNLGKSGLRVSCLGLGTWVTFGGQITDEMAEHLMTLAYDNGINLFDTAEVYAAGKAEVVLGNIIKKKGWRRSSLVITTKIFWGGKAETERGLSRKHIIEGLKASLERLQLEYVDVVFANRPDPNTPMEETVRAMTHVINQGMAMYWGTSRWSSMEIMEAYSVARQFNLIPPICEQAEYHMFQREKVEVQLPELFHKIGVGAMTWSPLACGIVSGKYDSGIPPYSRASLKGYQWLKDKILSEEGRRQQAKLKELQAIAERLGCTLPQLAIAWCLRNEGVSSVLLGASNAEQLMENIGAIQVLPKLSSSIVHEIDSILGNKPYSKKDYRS
Test Name: KvBeta positive modulators, primary screen, biochemical, NADPH fluorescence (AID 623);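 also: fluorescence intensity change per second fitted from 20 to 320 s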
Settings: Recombinant KvBeta, NADPH fluorescence decrease slope, 10 min; at 10 µM; hits give low values

- Compound: "Nc1ncnc2oc(-c3ccco3)c(-c3ccco3)c12"
  NADPH fluorescence slope: "-1.2e-05"
- Compound: "CN(C)c1oc(-c2ccccc2F)nc1C#N"
  NADPH fluorescence slope: "-1.3e-05"
- Compound: "COc1ccccc1-c1nnc(NC(=O)c2ccc(S(=O)(=O)N(C)Cc3ccccc3)cc2)o1"
  NADPH fluorescence slope: "-1.3e-05"
- Compound: "Oc1c(C(c2ccccc2)N2CCc3ccccc3C2)sc2ncnn12 (configuration not stated)"
  NADPH fluorescence slope: "-3.4e-05"
- Compound: "CCCCCOC(=O)C(C)c1c(C)[nH]c(=S)[nH]c1=O (configuration not stated)"
  NADPH fluorescence slope: "-8.1e-05"
- Compound: "CCC(=O)Nc1nc(C)c(Oc2ccccc2)c(=O)[nH]1"
  NADPH fluorescence slope: "-4.2e-05"
- Compound: "CCCc1cc(=O)oc2c(C)c(O)c(CN3CCCCC3)cc12"
  NADPH fluorescence slope: "-1.8e-06"
